- Tested on: CDK5
- recorded-conditions: concentration: 1 μM, replicates: in singlicate; n = 1;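 further: KINOMEscan kinase panel screen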
attribute-measured: %Inh (%)

> print(dat)
                                    molecule  attribute.measured  readout.units  observed
 1   O=C(Nc1ccccc1)Nc1ccc(Oc2ccc3nccn3n2)cc1                %Inh              %         0
 2  CC(C)(C)c1ccc(-n2cnc3c(N)ncnc32)cc1 [SKF-97263]                %Inh              %         0
 3  CS(=O)(=O)CCNCc1nc(-c2ccc3ncnc(Nc4ccc(OCc5cccc(F)c5)c(Cl)c4)c3c2)cs1.Cl [GW583340]                %Inh              %         0
 4  Nc1nccc2scc(-c3ccc4c(c3)CCN4C(=O)Cc3cc(F)ccc3F)c12 [GSK2587663]                %Inh              %         0
 5  Nc1nc(-c2cccnc2)c(-c2ccnc3ccccc23)s1 [GW684083]                %Inh              %         0
 6  O=C(Nc1ccccc1F)NC1CCN(c2ccnc(Nc3ccc(F)cc3)n2)C1 (centres unmarked) [GSK1379722]                %Inh              %         0
 7  Cc1ccc(NC(=O)c2cccc(C#N)c2)cc1-c1ccc(C(=O)Nc2ccncc2)cc1 [GSK1398463]                %Inh              %         0
 8  C[C@@H]1CCN(C(=O)CO)C[C@@H]1N(C)c1ncnc2[nH]ccc12                %Inh              %         4
 9  O=C(NCCCN1CCCC1=O)c1cnc(NCc2cc(Cl)ccc2Cl)nc1NC1CCNCC1                %Inh              %        11
10  Nc1nc(-c2ccc3c(N)n[nH]c3c2)cc(N2CCC[C@@H](C(=O)Nc3ccccc3)C2)n1.O=C(O)C(F)(F)F.O=C(O)C(F)(F)F [GSK2288359]                %Inh              %         0
11  COC(=O)c1cccc(NC(=O)NCCNc2ccnc(Nc3ccc(F)cc3)n2)c1 [GSK1379883]                %Inh              %         0
12  COc1cc2ncnc(Nc3ccc(OCc4ccccc4Br)c(Cl)c3)c2cc1OC.Cl [GI261590]                %Inh              %        18
13    CCn1c(-c2ccncc2)nc2cnccc21 [SB-735216]                %Inh              %         0
14  C[C@H]1CC[C@@H](C(=O)Nc2ccccc2)CN1c1cc(-c2ccc3c(N)n[nH]c3c2)nc(N)n1 [GSK2283293]                %Inh              %         0
15  COc1ccc(Nc2nccc(N3CCC(NC(=O)c4cccc(NC(C)=O)c4)C3)n2)cc1 (centres unmarked) [GSK1379732]                %Inh              %         0
16  CCc1nc(-c2cccc(N(C)S(=O)(=O)c3ccccc3)c2)c(-c2ccnc(Nc3ccc(N4CCN(C(C)=O)CC4)nc3)n2)s1 [GSK1645895]                %Inh              %         0
17  Cc1cc(N2CCC(NS(=O)(=O)c3ccc(F)cc3)CC2)nc(Nc2cccc(C#N)c2)n1.O=C(O)C(F)(F)F [GSK1653537]                %Inh              %         0

----------
Below is a list of entries, each paired with its recorded %Inh value.
- Test system: NDR2
- recorded-conditions: concentration: 1 μM, replicates: in singlicate; n = 1
attribute-measured: %Inh (%)

> print(dat)
                                    compound  study.system  observed
 1  Clc1ccc(-c2cc(-c3c[nH]nc3-c3ccccn3)ccn2)cc1 [GW681251]          NDR2         0
 2  Cl.Fc1ccccc1COc1ccc(Nc2ncnc3ccc(-c4nnc(C(F)(F)F)o4)cc23)cc1Cl [GW424170]          NDR2        16
 3  Cc1cc(N2CCC(NS(=O)(=O)c3ccc(F)cc3)CC2)nc(Nc2cccc(C#N)c2)n1.O=C(O)C(F)(F)F [GSK1653537]          NDR2         0
 4  FC(F)(F)c1ccc(-c2cc(-c3c[nH]nc3-c3ccccn3)ccn2)cc1 [GW599550]          NDR2         9
 5  FC(F)(F)c1ccc(-c2nn3ncccc3c2-c2ccnc(Nc3cccc(C(F)(F)F)c3)n2)cc1 [GW828205]          NDR2         0
 6  Nc1nc(-c2ccccn2)c(-c2ccnc3ccccc23)s1 [GW548057]          NDR2        52
 7  CCCc1ccc(S(=O)(=O)NC2CCN(c3ccnc(Nc4ccc(OC)cc4)n3)C2)cc1 (stereo not drawn) [GSK1379737]          NDR2         0
 8  Fc1cccc(COc2ccc(Nc3ncnc4cc[nH]c34)cc2Cl)c1          NDR2         8
 9  NC(=O)c1sc(-n2cnc3ccccc32)cc1OCc1ccccc1F [GSK1024306]          NDR2        11
10  Nc1nccc2scc(-c3ccc4c(c3)CCN4C(=O)Cc3cc(F)ccc3F)c12 [GSK2587663]          NDR2         0
11  O=C(Nc1n[nH]c2nc(-c3ccco3)c(Br)cc12)c1ccc(CN2CCCC2)cc1.O=C(O)[C@H](O)[C@@H](O)C(=O)O [SB-742352]          NDR2         0
12  Fc1ccc(-c2ncn(CCCNCc3ccccc3)c2-c2ccncc2)cc1          NDR2        19
13  CC(C)(C)c1ccc(-n2cnc3c(N)ncnc32)cc1 [SKF-97263]          NDR2         0
14  Nc1n[nH]c2nnc(-c3ccccc3)cc12 [SB-517389]          NDR2         0
15  Clc1cccc(-c2nc(Nc3ccncc3)c3ccccc3n2)c1 [GW873004]          NDR2         0
16  O=C(NCCCN1CCCC1=O)c1cnc(NCc2cc(Cl)ccc2Cl)nc1NC1CCNCC1          NDR2         0
17  CC(=O)Nc1n[nH]c2ncc(-c3ccccc3)cc12 [SB-548492]          NDR2        17
18  CS(=O)(=O)CCNCc1nc(-c2ccc3ncnc(Nc4ccc(OCc5cccc(F)c5)c(Cl)c4)c3c2)cs1.Cl [GW583340]          NDR2        15

----------
%Inh for assorted compounds
- System: STK33
- recorded-conditions: concentration: 1 μM, replicates: in singlicate; n = 1
attribute-measured: %Inh (%)

> print(dat)
                                   compound  readout.units  observed
1  COc1ccc(NC(=O)Nc2ccc(C)c(-c3ccc(C(=O)Nc4ccncc4)cc3)c2)cc1 [GSK1398475]              %         0
2  CCc1nc(-c2cccc(C)c2)c(-c2ccnc(NC(=O)c3ccccc3)c2)s1              %        12
3  O=C(c1ccc(-c2cc(-c3c[nH]nc3-c3ccccn3)ccn2)cc1)N1CCCC1 [GW792479]              %         0
4  Cc1cccc(-c2nc(Nc3ccc4[nH]nnc4c3)c3ccccc3n2)n1 [GW867587]              %         0
5  Fc1cccc(COc2ccc(Nc3ncnc4nn5ccccc5c34)cc2Cl)c1 [GW689066]              %         0

----------
- Tested on: ROCK2
- recorded-conditions: concentration: 1 μM, replicates: in singlicate; n = 1
attribute-measured: %Inh (%)

> print(dat)
                                   compound  attribute.measured  observed
1  COc1ccc(NC(=O)c2ccc(-c3cc(-c4nnc(C)o4)ccc3C)cc2)cc1 [GW595885]                %Inh        13
2  CSc1ccc(NC2=C(c3ccccc3Cl)C(=O)NC2=O)cc1 [SB-342411]                %Inh         0
3  Cc1cc(N2CCC(NS(=O)(=O)c3ccc(F)cc3)CC2)nc(Nc2cccc(C#N)c2)n1.O=C(O)C(F)(F)F [GSK1653537]                %Inh         0
4  O=C(Nc1n[nH]c2nc(-c3ccco3)c(Br)cc12)c1ccc(CN2CCCC2)cc1.O=C(O)[C@H](O)[C@@H](O)C(=O)O [SB-742352]                %Inh         0
5  Cc1ccc(O)cc1Nc1cc(C(F)(F)F)nc2ccc(-c3ccncc3)cc12 [GW630823]                %Inh         0
6  CSc1nn2c(=O)cc(N3CCOCC3)nc2n1Cc1cccc(Cl)c1Cl [GSK2347225]                %Inh         0
7  CCc1nc(-c2cccc(N(C)S(=O)(=O)c3ccccc3)c2)c(-c2ccnc(Nc3ccc(N4CCN(C(C)=O)CC4)nc3)n2)s1 [GSK1645895]                %Inh         0
8  COc1cc2ncnc(Nc3ccc(OCc4ccccc4Br)c(Cl)c3)c2cc1OC.Cl [GI261590]                %Inh        27
